Tested on: MOLT-4 leukemia
protocol: NCI-60 one-dose screen, 48 h (100 = growth as untreated, 0 = no growth, -100 = all killed)
condition: 10 µM unless noted
About 83,000 compounds went through this panel and 20% of them were active in at least one assay; those are over-represented in the sample as a whole.
property_name: growth (%)

In [3]: df
Out[3]:
                               item_smiles  u  observed
0           Oc1cccc(Nc2nc(-c3ccccn3)cs2)c1  %      85.2
1  CC(=O)Nc1ccc(Sc2ccc([N+](=O)[O-])o2)cc1  %      33.2
2  Cn1c2ccccc2c2nn(C(=O)c3ccccc3)c(=O)nc21  %       104

----------
Test system: RXF 393 renal
protocol: NCI-60 one-dose screen, 48 h (100 = growth as untreated, 0 = no growth, -100 = all killed)
condition: 10 µM unless noted
This is part of a sample that, as a whole, favours compounds with a hit. Of some 83,000 tested, about 20% had one in any assay.
Entries and their growth values follow.
property_name: growth (%)

>>> df
                                   compound  observed
0  C(=C\c1ccccc1)/CN1CCN(C(c2ccccc2)c2ccccc2)CC1        81
1  Brc1ccc(SCN(CSc2ccc(Br)cc2)Cc2ccccc2)cc1      89.9
2  COc1cc(/C=C2\C(=O)N(c3c(Cl)cccc3Cl)c3ccccc32)cc(OC)c1O      90.4
3  COc1nc2c(cc1S(=O)(=O)c1ccccc1)CCc1c-2cnn1-c1cccc(Cl)c1      76.7
4  CN([N-]C(=O)CC(=O)[N-]N(C)C(=S)c1ccccc1)C(=S)c1ccccc1.[Cu+2]     -91.8
5    Cn1cc(C(=O)NCCC(=N)N)cc1NC(=O)CN=C(N)N       114
6  COC(=O)c1c2c(c(C)[n+]([O-])c1C)C(=O)C=C(NCc1ccc(Cl)cc1)C2=O     -31.7
7  O=C(C[Si](CC(=O)c1cccc(C(F)(F)F)c1)CC(=O)c1cccc(C(F)(F)F)c1)c1cccc(C(F)(F)F)c1       102
8  O=C1CCC(N2C(=O)c3cccc(NCCOCCOCCNC(=O)c4cc5c(o4)C(=O)c4ccccc4C5=O)c3C2=O)C(=O)N1 (centres undefined)     -39.5

----------
Test system: PC-3 prostate
protocol: NCI-60 one-dose screen, 48 h
condition: 10 µM unless noted
About 83,000 compounds went through this panel and 20% of them were active in at least one assay; those are over-represented in the sample as a whole. Activity calls are given as the source filed them. The calls were made as follows: active = growth percent below 10; inactive = the rest.
Possible outcomes: Yes = active, No = inactive

                                    compound  class_label
 0  Cc1ccc(S(=O)(=O)N(c2ccc(Cl)cc2)c2ccc(Br)cc2C(=O)O)cc1           No
 1  COc1ccc(OC2=C(C#N)C(=N)N3c4ccccc4Sc4ccccc4C3N2)cc1 (stereo unspecified)           No
 2    COc1cc(/C=C2\C(=O)Nc3ccccc32)cc(OC)c1O           No
 3  Cn1c2c(cc(S(=O)(=O)c3ccccc3)c1=O)CCc1c-2cnn1-c1cccc(Cl)c1           No
 4  C=CC(=O)N1CC2(CCC(n3nc(-c4ccc(Oc5ccccc5)cc4)c4c(N)ncnc43)CC2)C1          Yes
 5                      CSc1ccc(OC(C)=O)cc1C           No
 6  Cc1nc(-c2ccccc2)cc2c(O)c(C(=O)N/N=C/Cc3ccccc3)[nH]c(=O)c12           No
 7   O=C1C(Cl)=C(NCCCN2CCOCC2)C(=O)c2ccccc21           No
 8        FC(F)(F)c1ccc2c(c1)n1cnnc1c1nncn21           No
 9          O=c1[nH]c(=O)n(Cc2ccc(F)cc2)cc1F           No
10  CC(C)(C)[Si](C)(C)OC1[C@@H](COC(N)=O)O[C@@H](n2cnc3c(N)ncnc32)[C@H]1O[Si](C)(C)C(C)(C)C (stereo partly specified)           No
11     COc1ccc(Sc2ccc3[nH]c(=O)nc(N)c3c2)cc1           No
12  COC(=O)C1C2CC3c4[nH]c5cc(OC)ccc5c4CCN3CC2CC(OC2CCCCO2)C1OC (stereo unspecified)           No
13  Clc1ccc(C2=NN(c3ccccc3)[C@H](c3cn(-c4ccccc4)nc3-c3ccccc3)C2)cc1           No
14            CCCCCCCCCCCCCCCC[N+]1(C)CCOCC1          Yes
15         Cc1ccc2c(N/N=C\c3ccco3)cc(C)nc2n1           No
16            CCCCC(=O)N/N=C/c1cc(I)cc(I)c1O           No
17  CCCN1CCN(c2ccc3nc(-c4ccc5nc(-c6ccc(C(F)(F)F)cc6)[nH]c5c4)[nH]c3c2)CC1          Yes
18  N#CC1=C(N)Oc2cc(N)ccc2C1c1ccc(F)cc1 (stereo unspecified)           No
19  COc1ccc(-c2nn(-c3ccc(NC(=O)c4ccc(Cl)c(Cl)c4)cc3)cc2-c2ccncc2)cc1Cl           No
20  Cc1cccc2c(=O)c3c(sc12)c(NCCNCCO)nc1ccccc13           No
21  O=c1c2cc(F)ccc2oc2c(NCCNCCO)nc3ccccc3c12           No
22  Clc1ccc(Nc2nc(Nc3ccccc3)nc(Nc3ccc(-c4cc(-c5ccc(Cl)cc5)on4)cc3)n2)cc1           No
23  COc1ccc(/C=N/NC(=O)c2cnn3c2NC(c2ccccc2)C3)cc1OC1CCCC1 (stereo unspecified)           No
24  CN1CCc2cccc3c2C1Cc1ccc(O)c(O)c1-3 (stereo unspecified)           No
25  Cc1ccc(S(=O)(=O)N2CCc3ccc(O)c4c3C2Cc2cc(Cl)ccc2-4)cc1 (stereo unspecified)           No
26                    OC[C@@H](O)[C@@H](O)CO           No
27          COc1ncnc2c1ncn2C/C(Br)=C(\Br)CCl           No
28   CCN(C(=O)c1ccc2c3c(cccc13)C=C2)c1ccccc1           No
29  COc1ccc(-n2ncc3c4nc(OC)c(S(=O)(=O)c5ccccc5)cc4ccc32)cc1           No
30  COc1ccc(-c2nc3sccn3c2/C=C/C(=O)c2cc(OC)c(OC)c(OC)c2)cc1OC           No
